System: NCI/ADR-RES ovarian
Assay: NCI tumour cell line growth inhibition, 48 h
parameter: GI50

Sample answers from the record:
[
  {
    "compound": "COC(=O)c1cc(Nc2ccc(O)c3c2C(=O)c2c([N+](=O)[O-])ccc(O)c2C3=O)cc(C(=O)OC)c1",
    "result": "26.8 µM"
  },
  {
    "compound": "Cc1nn(-c2ccccc2)c2c1C1C(=C(c3ccc(Cl)cc3)N2)C(=O)Nc2ccccc21 (stereo not given)",
    "result": "4.32 µM"
  },
  {
    "compound": "COc1ccc(C[C@H]2C[C@@H](O)[C@@H](C)C/C=C/Cc3cccc(O)c3C(=O)O2)cn1",
    "result": "19.1 µM"
  }
]

Prompt: GI50 lookup needed for COc1cc(C2C3=C(COC3=O)N(CCO)c3cc4c(cc32)CCC4)cc(OC)c1O (stereo not given) , thanks.
Response: 2.45 µM

Prompt: Follow-up entry: CCCC/C(=N\N=C(N)N)c1ccc(F)cc1
Response: 2.38 µM

Values from PubChem BioAssay (NCI)
